target.system: Metabotropic glutamate receptor 1 (Homo sapiens)
Sequence (Q13255 whole entry): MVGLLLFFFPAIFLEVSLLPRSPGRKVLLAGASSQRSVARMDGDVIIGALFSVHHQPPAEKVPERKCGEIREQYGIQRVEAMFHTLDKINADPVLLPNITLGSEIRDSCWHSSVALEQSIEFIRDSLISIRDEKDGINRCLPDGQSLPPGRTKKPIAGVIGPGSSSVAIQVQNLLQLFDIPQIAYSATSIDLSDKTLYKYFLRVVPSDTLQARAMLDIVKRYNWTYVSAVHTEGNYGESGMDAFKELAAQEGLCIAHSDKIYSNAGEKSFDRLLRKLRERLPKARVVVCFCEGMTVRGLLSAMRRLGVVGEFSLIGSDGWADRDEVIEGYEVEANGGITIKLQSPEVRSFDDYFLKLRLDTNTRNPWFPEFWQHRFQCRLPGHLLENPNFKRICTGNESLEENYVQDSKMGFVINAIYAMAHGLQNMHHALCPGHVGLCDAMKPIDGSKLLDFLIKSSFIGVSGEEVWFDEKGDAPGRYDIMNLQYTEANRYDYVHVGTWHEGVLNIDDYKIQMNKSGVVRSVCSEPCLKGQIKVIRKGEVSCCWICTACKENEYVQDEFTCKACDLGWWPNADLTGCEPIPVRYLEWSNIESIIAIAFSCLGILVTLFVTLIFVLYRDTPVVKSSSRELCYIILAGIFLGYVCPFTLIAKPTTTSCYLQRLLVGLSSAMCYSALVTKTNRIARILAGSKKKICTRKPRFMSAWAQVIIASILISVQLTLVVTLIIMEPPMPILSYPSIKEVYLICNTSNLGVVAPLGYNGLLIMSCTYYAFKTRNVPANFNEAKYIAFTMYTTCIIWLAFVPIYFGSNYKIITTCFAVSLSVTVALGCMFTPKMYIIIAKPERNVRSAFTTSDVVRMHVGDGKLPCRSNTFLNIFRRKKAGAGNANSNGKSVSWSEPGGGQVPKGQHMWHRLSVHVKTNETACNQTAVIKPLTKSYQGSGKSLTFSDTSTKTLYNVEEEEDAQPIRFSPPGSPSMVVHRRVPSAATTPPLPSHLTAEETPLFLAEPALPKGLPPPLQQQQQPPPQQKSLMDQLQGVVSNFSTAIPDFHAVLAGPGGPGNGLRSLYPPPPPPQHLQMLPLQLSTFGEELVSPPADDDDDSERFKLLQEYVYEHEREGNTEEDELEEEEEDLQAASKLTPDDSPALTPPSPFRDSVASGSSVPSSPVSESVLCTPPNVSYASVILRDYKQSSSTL
experimental.details: Compound was tested for inhibition of glutamate-evoked (10 uM) [Ca2+] mobilization in Metabotropic glutamate receptor 1 expressed-CHO cells; NE: No effect at 1-100 uM
Type: cell-based
metric.name: IC50

compound: CCOC(=O)c1cc(=O)c2ccccc2o1
target.system: Metabotropic glutamate receptor 1 (Homo sapiens)
IC50: No effect

compound: O=C1c2ccccc2OC2(C(=O)Nc3ccccc3)CC12 (stereo unspecified)
target.system: Metabotropic glutamate receptor 1 (Homo sapiens)
IC50: No effect

compound: CN(C(=O)C12CC1C(=O)c1ccccc1O2)c1ccccc1 (stereo unspecified)
target.system: Metabotropic glutamate receptor 1 (Homo sapiens)
IC50: No effect

compound: CCOC(=O)C12CC1C(=O)c1ccccc1O2 (stereo unspecified)
target.system: Metabotropic glutamate receptor 1 (Homo sapiens)
IC50: No effect

compound: CN(C(=O)c1cc(=O)c2ccccc2o1)c1ccccc1
target.system: Metabotropic glutamate receptor 1 (Homo sapiens)
IC50: No effect

Consider the additional compound presented here.
query: Look up IC50: O=C(Nc1ccccc1)c1cc(=O)c2ccccc2o1
result: No effect
